# Target Or System: UniProtKB P32300
# Sequence (P32300 whole entry): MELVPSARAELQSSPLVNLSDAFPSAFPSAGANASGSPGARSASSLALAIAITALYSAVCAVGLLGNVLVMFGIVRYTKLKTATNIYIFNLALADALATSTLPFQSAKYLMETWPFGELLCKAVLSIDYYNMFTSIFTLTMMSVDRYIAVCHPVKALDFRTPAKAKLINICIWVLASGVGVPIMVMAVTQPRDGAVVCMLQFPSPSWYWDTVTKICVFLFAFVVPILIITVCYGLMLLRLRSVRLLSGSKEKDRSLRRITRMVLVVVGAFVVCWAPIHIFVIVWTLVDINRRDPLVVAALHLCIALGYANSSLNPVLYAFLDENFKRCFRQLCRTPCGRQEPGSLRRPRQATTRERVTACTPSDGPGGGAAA
# Condition Details: read-out: Agonist activity (% inhibition of contraction at 1 µM), MVD
Item-by-item account of inhibition at 1 µM
# output: bare number, implied unit %

Example molecules with recorded inhibition at 1 µM:
INSERT INTO results (line_notation, outcome_measure, units_symbol, obs_value) VALUES
  ('COc1ccc2c(c1)c(CC(=O)O)c(C)n2C1CCN(C)CC1', 'inhibition at 1 µM', '%', 2.8),
  ('Cc1c(CC(=O)O)c2ccccc2n1C1CCN(CCc2ccccc2)CC1', 'inhibition at 1 µM', '%', 19.5),
  ('COc1ccc2c(c1)c(CC(=O)O)c(C)n2C1CCN(CCc2ccccc2)CC1', 'inhibition at 1 µM', '%', 0);

Now for another entry.
Q: I'd like to know its inhibition at 1 µM. The molecule in question is Cc1c(CC(=O)O)c2ccccc2n1C1CCN(C)CC1
Ans: 17.9

----------
# Target Or System: μ opioid receptors (Cavia porcellus)
# Sequence (A0ACM8Q262 1-400): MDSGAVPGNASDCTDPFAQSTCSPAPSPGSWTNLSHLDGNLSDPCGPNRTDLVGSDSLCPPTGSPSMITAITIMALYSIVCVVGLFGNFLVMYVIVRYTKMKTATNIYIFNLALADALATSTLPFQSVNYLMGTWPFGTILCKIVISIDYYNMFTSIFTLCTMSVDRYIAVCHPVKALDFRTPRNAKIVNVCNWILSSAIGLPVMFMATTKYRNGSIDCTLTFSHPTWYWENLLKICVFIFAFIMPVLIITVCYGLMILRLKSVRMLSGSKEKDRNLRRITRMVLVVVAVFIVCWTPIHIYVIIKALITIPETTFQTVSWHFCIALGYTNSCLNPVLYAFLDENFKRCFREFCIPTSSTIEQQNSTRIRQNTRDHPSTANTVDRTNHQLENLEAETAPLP
# Parameters: species or system guinea pig
# Condition Details: read-out: Agonist activity (% inhibition of contraction at 1 µM), GPI/LMMP
Outcome Measure: inhibition at 1 µM

Example compounds with recorded inhibition at 1 µM:
INSERT INTO results (compound, obs_value) VALUES
  ('COc1ccc2c(c1)c(CC(=O)O)c(C)n2C1CCN(CCc2ccccc2)CC1 [Compound 9f]', '6%'),
  ('Cc1c(CC(=O)O)c2ccccc2n1C1CCN(C)CC1 [Compound 9a]', '0.7%'),
  ('Cc1c(CC(=O)O)c2ccccc2n1C1CCN(CCc2ccccc2)CC1 [Compound 9c]', '3.1%');

Now for another entry.
Q: Look up inhibition at 1 µM with μ opioid receptors (Cavia porcellus) for this compound: COc1ccc2c(c1)c(CC(=O)O)c(C)n2C1CCN(C)CC1 [Compound 9d]
Ans: 0%
